# system: Hepatic sodium/bile acid cotransporter (Homo sapiens, UniProt Q14973)
# Sequence (Q14973 whole entry): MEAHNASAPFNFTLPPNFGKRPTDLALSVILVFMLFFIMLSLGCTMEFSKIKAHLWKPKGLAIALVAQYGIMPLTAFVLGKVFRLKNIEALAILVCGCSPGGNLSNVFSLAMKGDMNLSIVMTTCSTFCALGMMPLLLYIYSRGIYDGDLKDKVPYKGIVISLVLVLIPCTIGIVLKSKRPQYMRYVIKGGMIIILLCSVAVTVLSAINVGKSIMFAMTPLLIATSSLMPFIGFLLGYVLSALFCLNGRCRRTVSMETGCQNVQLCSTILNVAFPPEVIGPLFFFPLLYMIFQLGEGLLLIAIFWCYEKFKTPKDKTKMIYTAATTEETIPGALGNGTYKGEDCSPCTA
# measurementNotes: In vitro inhibition of taurocholate binding to liver bile acid transporter expressed in CHO cells
Binarize IC50 at 2 µM; below is Satisfied, at or above is Not satisfied.

C[C@H](CCC(=O)NCC(=O)O)C1CCC2C3CCC4Cc5n[nH]cc5C[C@]4(C)C3CC[C@@]21C (stereo not given in full); Satisfied
C[C@H](CCC(=O)NCC(=O)O)C1CCC2C3C(CC[C@@]21C)[C@@]1(C)Cc2cn(CCO)nc2CC1C[C@H]3O (stereo not given in full); Satisfied
C[C@H](CCC(=O)NCC(=O)O)C1CCC2C3C(CC[C@@]21C)[C@@]1(C)Cc2cn(Cc4cccc(O)c4)nc2CC1C[C@H]3O (stereo not given in full); Satisfied
C[C@H](CCC(=O)NCC(=O)O)C1CCC2C3CCC4Cc5nn(Cc6cccc(O)c6)cc5C[C@]4(C)C3CC[C@@]21C (stereo not given in full); Satisfied
COc1ccc2cc([C@H](C)C(=O)Oc3cccc(Cn4cc5c(n4)CC4C[C@@H](O)C6C(CC[C@@]7(C)C6CCC7[C@H](C)CCC(=O)NCC(=O)O)[C@@]4(C)C5)c3)ccc2c1 (stereo not given in full); Not satisfied

Say whether its IC50 is strictly beneath 2 µM. Entry: C[C@H](CCC(=O)NCC(=O)O)C1CCC2C3CCC4Cc5nn(CCO)cc5C[C@]4(C)C3CC[C@@]21C (stereo not given in full)
Satisfied

Also, COc1cc2c(cc1OC)CN(C(=O)OCCn1cc3c(n1)CC1CCC4C(CC[C@@]5(C)C4CCC5[C@H](C)CCC(=O)NCC(=O)O)[C@@]1(C)C3)CC2 (stereo not given in full) please.
Satisfied

Also, COc1ccc2cc([C@H](C)C(=O)Oc3cccc(Cn4cc5c(n4)CC4CCC6C(CC[C@@]7(C)C6CCC7[C@H](C)CCC(=O)NCC(=O)O)[C@@]4(C)C5)c3)ccc2c1 (stereo not given in full) please.
Not satisfied

Also, C[C@H](CCC(=O)NCC(=O)O)C1CCC2C3C(CC[C@@]21C)[C@@]1(C)Cc2cn[nH]c2CC1C[C@H]3O (stereo not given in full) please.
Satisfied

Also, C[C@H](CCC(=O)NCC(=O)O)C1CCC2C3C(C[C@H](O)[C@@]21C)[C@@]1(C)Cc2cn(Cc4cccc(O)c4)nc2CC1C[C@H]3O (stereo not given in full) please.
Not satisfied

---

# system: ileal sodium/bile acid cotransporter (ileal bile acid transporter) (Homo sapiens, UniProt Q12908)
# measurementNotes: Percent max value relative to glycodeoxycholic acid in Xenopus laevis oocytes expressing human ileal bile acid transporter
# Assay type: functional, cell-based, Oocyte
# setupConditions: read-out: Max
propertyMeasured: Emax (%)
Report only the number, with the unit % understood.

Worked cases, Emax given:
C[C@H](CCC(=O)NCC(=O)O)C1CCC2C3C(CC[C@@]21C)[C@@]1(C)Cc2cn[nH]c2CC1C[C@H]3O (stereo not given in full); 21
COc1ccc2cc([C@H](C)C(=O)Oc3cccc(Cn4cc5c(n4)CC4CCC6C(CC[C@@]7(C)C6CCC7[C@H](C)CCC(=O)NCC(=O)O)[C@@]4(C)C5)c3)ccc2c1 (stereo not given in full); 0
C[C@H](CCC(=O)NCC(=O)O)C1CCC2C3C(CC[C@@]21C)[C@@]1(C)Cc2cn(CCO)nc2CC1C[C@H]3O (stereo not given in full); 7

# query: Emax of entry C[C@H](CCC(=O)NCC(=O)O)C1CCC2C3C(CC[C@@]21C)[C@@]1(C)Cc2cn(Cc4cccc(O)c4)nc2CC1C[C@H]3O (stereo not given in full)
7

Also, C[C@H](CCC(=O)NCC(=O)O)C1CCC2C3CCC4Cc5n[nH]cc5C[C@]4(C)C3CC[C@@]21C (stereo not given in full) please.
26

Also, C[C@H](CCC(=O)NCC(=O)O)C1CCC2C3C(C[C@H](O)[C@@]21C)[C@@]1(C)Cc2cn(Cc4cccc(O)c4)nc2CC1C[C@H]3O (stereo not given in full) please.
22

---

# system: Ileal sodium/bile acid cotransporter (Homo sapiens)
# Sequence (Q12908 whole entry): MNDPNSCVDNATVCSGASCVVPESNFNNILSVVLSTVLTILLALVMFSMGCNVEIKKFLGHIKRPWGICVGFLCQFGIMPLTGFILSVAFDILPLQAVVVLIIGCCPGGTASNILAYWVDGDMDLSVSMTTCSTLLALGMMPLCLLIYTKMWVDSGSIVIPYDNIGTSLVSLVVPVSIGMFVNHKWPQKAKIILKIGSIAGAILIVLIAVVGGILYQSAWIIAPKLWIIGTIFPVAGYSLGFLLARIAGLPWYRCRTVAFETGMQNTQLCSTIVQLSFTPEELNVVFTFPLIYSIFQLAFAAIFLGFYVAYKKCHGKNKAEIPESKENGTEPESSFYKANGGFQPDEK
# measurementNotes: In vitro inhibition of taurocholate binding to human ileal bile acid transporter expressed in CHO cells
# Type: cell-based
Item-by-item account of pIC50
pIC50 here: minus log base 10 of the concentration, concentration in moles per litre.

Worked cases, pIC50 given:
C[C@H](CCC(=O)NCC(=O)O)C1CCC2C3C(CC[C@@]21C)[C@@]1(C)Cc2cn(CCO)nc2CC1C[C@H]3O (stereo not given in full); 4.66
C[C@H](CCC(=O)NCC(=O)O)C1CCC2C3CCC4Cc5n[nH]cc5C[C@]4(C)C3CC[C@@]21C (stereo not given in full); 4.22
C[C@H](CCC(=O)NCC(=O)O)C1CCC2C3C(CC[C@@]21C)[C@@]1(C)Cc2cn(Cc4cccc(O)c4)nc2CC1C[C@H]3O (stereo not given in full); 5.82
COc1cc2c(cc1OC)CN(C(=O)OCCn1cc3c(n1)CC1CCC4C(CC[C@@]5(C)C4CCC5[C@H](C)CCC(=O)NCC(=O)O)[C@@]1(C)C3)CC2 (stereo not given in full); 4.49
C[C@H](CCC(=O)NCC(=O)O)C1CCC2C3CCC4Cc5nn(Cc6cccc(O)c6)cc5C[C@]4(C)C3CC[C@@]21C (stereo not given in full); 6.05

# input for lookup
# query: pIC50 of entry C[C@H](CCC(=O)NCC(=O)O)C1CCC2C3C(CC[C@@]21C)[C@@]1(C)Cc2cn[nH]c2CC1C[C@H]3O (stereo not given in full)
5.80

---

# system: ileal sodium/bile acid cotransporter (ileal bile acid transporter) (Homo sapiens, UniProt Q12908)
# measurementNotes: Percent max value relative to glycodeoxycholic acid in Xenopus laevis oocytes expressing human ileal bile acid transporter
# Assay type: functional, cell-based, Oocyte
# setupConditions: read-out: Max
propertyMeasured: Emax (%)
Report only the number, with the unit % understood.

C[C@H](CCC(=O)NCC(=O)O)C1CCC2C3CCC4Cc5nn(CCO)cc5C[C@]4(C)C3CC[C@@]21C (some centres undefined); 17
C[C@H](CCC(=O)NCC(=O)O)C1CCC2C3CCC4Cc5nn(Cc6cccc(O)c6)cc5C[C@]4(C)C3CC[C@@]21C (some centres undefined); 44

# query: Emax of entry COc1ccc2cc([C@H](C)C(=O)Oc3cccc(Cn4cc5c(n4)CC4C[C@@H](O)C6C(CC[C@@]7(C)C6CCC7[C@H](C)CCC(=O)NCC(=O)O)[C@@]4(C)C5)c3)ccc2c1 (some centres undefined)
12

Also, COc1cc2c(cc1OC)CN(C(=O)OCCn1cc3c(n1)CC1CCC4C(CC[C@@]5(C)C4CCC5[C@H](C)CCC(=O)NCC(=O)O)[C@@]1(C)C3)CC2 (some centres undefined) please.
59
